target: flag-tagged HIF1α (AA 786-826) / His6-tagged p300 (AA 323-423) complex (Homo sapiens, UniProt Q09472); construct: His6-tagged p300 (AA 323-423); made in house; host or cells: E. coli (pETDuet vector); assay: HIF1α p300 displacement assay (TR FRET, +CHAPS); format: binding; settings: read-out: IC50 (nM) (HIF1α_p300 Displacement + CHAPS)
Bridge positions count the residues as written; N and C are the ends. Square brackets hold non-standard residues; d marks the D form. Peptide text beside a SMILES is read from it. R8 = C=CCCCCCC[C@@](C)(N)C(=O)O; S5 = C=CCCC[C@](C)(N)C(=O)O; Nle = CCCC[C@H](N)C(=O)O
As shown below, each of these molecules has a reported IC50 value.

* CCCC[C@H](NC(=O)[C@H](CCC(=O)O)NC(=O)[C@]1(C)CCCC=CCCCCCC[C@@](C)(NC(=O)[C@H](CCC(=O)O)NC(=O)[C@H](C)NC(=O)[C@@H](NC(=O)[C@H](Cc2ccccc2)NC(C)=O)[C@@H](C)CC)C(=O)N[C@@H](C(C)C)C(=O)N[C@@H](CC(C)C)C(=O)N[C@@H](CCCC)C(=O)N[C@@H](CO)C(=O)N[C@@H](CC(C)C)C(=O)N[C@@H](C(C)C)C(=O)N1)C(=O)N[C@@H](C)C(=O)N[C@@H](CC(C)C)C(N)=O [SP-197] (Ac-FIAE[R8]VL[Nle]SLV[S5]E[Nle]AL-NH2; staple 5-12) | > 700 nM
* CCCC[C@@H]1NC(=O)[C@H](CC(C)C)NC(=O)[C@H](C(C)C)NC(=O)[C@@](C)(NC(=O)[C@H](CCC(=O)O)NC(=O)[C@H](CC(=O)O)NC(=O)[C@@H](NC(=O)[C@H](Cc2ccccc2)NC(C)=O)[C@@H](C)CC)CCCC=CCCC[C@@](C)(C(=O)N[C@@H](CC(C)C)C(=O)N[C@H](C(=O)N[C@H](C(=O)N[C@@H](CCC(=O)O)C(=O)N[C@@H](CO)C(=O)N[C@@H](C)C(=O)N[C@@H](CC(C)C)C(N)=O)[C@@H](C)CC)C(C)C)NC1=O [SP-147] (Ac-FIDE[S5]VL[Nle][S5]LVIESAL-NH2; staple 5-9) | > 700 nM
* CC[C@H](C)[C@H](NC(=O)[C@H](Cc1ccccc1)NC(C)=O)C(=O)N[C@@H](CC(=O)O)C(=O)N[C@@H](CCC(=O)O)C(=O)N[C@]1(C)CCCCCCC=CCCC[C@@](C)(C(=O)N[C@@H](CCC(=O)O)C(=O)N[C@@H](CCSC)C(=O)N[C@@H](C)C(=O)N[C@@H](CC(C)C)C(N)=O)NC(=O)[C@H](C(C)C)NC(=O)[C@H](CC(C)C)NC(=O)[C@H](CO)NC(=O)[C@H](CCSC)NC(=O)[C@H](CC(C)C)NC(=O)[C@H](C(C)C)NC1=O [SP-177] (Ac-FIDE[R8]VLMSLV[S5]EMAL-NH2; staple 5-12) | 400 to 700 nM

Let us examine a further case.
Q. Given the molecule CC[C@H](C)[C@H](NC(=O)[C@H](Cc1ccccc1)NC(C)=O)C(=O)N[C@@H](CC(=O)O)C(=O)N[C@@H](CCC(=O)O)C(=O)N[C@@H](CO)C(=O)N[C@H](C(=O)N[C@@H](CC(C)C)C(=O)N[C@@H](CCSC)C(=O)N[C@@]1(C)CCCC=CCCC[C@@](C)(C(=O)N[C@@H](CCSC)C(=O)N[C@@H](C)C(=O)N[C@@H](CC(C)C)C(N)=O)NC(=O)[C@H]([C@@H](C)CC)NC(=O)[C@H](C(C)C)NC(=O)[C@H](CC(C)C)NC1=O)C(C)C [SP-238] (Ac-FIDESVLM[S5]LVI[S5]MAL-NH2; staple 9-13) , what is its reported IC50?
A. 400 to 700 nM
